test_target: 11-beta-hydroxysteroid dehydrogenase 1 (Rattus norvegicus, UniProt P16232)
Sequence (P16232 whole entry): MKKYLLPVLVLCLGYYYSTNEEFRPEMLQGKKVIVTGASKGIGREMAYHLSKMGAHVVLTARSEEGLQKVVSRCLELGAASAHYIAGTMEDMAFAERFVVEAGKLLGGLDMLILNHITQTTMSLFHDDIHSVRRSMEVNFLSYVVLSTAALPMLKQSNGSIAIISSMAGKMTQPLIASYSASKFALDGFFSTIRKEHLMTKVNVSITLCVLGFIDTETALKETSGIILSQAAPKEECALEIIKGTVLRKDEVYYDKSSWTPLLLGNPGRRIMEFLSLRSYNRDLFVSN
assay_text: Inhibition Assay: The procedure for measuring the 11β-HSD1-inhibitory activity is as follows. The enzyme reaction and the measurement were carried out using a 384-well plate. The enzyme was prepared in accordance with Journal of Biological Chemistry, 2001, Vol. 276, p. 21343-21350. The reaction was carried out by adding a test compound at various concentrations to a reaction liquid consisting of a 5 mM phosphate buffer (pH 6.6), 200 nM cortisone, 40 μM reduced nicotinamide adenine dinucleotide phosphate (NADPH), and rat recombinant 11β-HSD1, followed by incubating at room temperature for one hour (10 μl/well). The test compound was prepared by dissolving in dimethyl sulfoxide (DMSO) such that a DMSO concentration reached 1% in the reaction liquid. After the enzyme reaction was completed, the enzyme inhibitory action was measured by detecting cortisol using a homogeneous time-resolved fluorescence (HTRF) method. Each of a d2-labeled cortisol containing 400 μM carbenoxolone and a cryptate-labeled cortisol antibody (CIS Bio International Co., Ltd.) was added at 5 μl/well, followed by incubating at room temperature for 2 hours, and then the fluorescence intensity was measured using a fluorophotometer (trade name: ARVO HTS 1420, Perkin Elmer/Wallac), and the enzyme inhibitory activity was calculated from the fluorescence intensity ratio of two wavelengths (665 nm/620 nm).The measurement results were calculated by averaging the values of 3 wells of the same condition. The ratio when DMSO was added instead of the test compound was taken as 0% and the ratio when 11β-HSD1 was not added was taken as 100%, thereby calculating the 50% inhibition concentration of the test compound as IC50 of the compound inhibitory activity.
property_measured: IC50 (nM)

Cn1c(-c2ccc(F)cc2Cl)nnc1C(C)(C)Oc1c(F)cc(F)cc1F	52

I = CCn1c(-c2ccc(C(N)=O)cc2)nnc1C(C)(C)Oc1c(F)cc(Cl)cc1F
II = CC(C)n1c(-c2ccc(C(N)=O)cc2F)nnc1C(C)(C)Oc1c(F)cc(F)cc1F
III = Cn1c(-c2ccc(C(N)=O)cc2F)nnc1C(C)(C)Oc1c(F)cc(Cl)cc1F
// query Task field, ranking: reported IC50, descending order. Answer with the labels in sequence, matching the requested order.
// result III, I, II
